// values below are reported hAPJ Ca^2+ Flux EC50
Biological target: T1, human APJ receptor (hAPJ) (human, UniProt P35414 1-380)
T1 sequence (looked up): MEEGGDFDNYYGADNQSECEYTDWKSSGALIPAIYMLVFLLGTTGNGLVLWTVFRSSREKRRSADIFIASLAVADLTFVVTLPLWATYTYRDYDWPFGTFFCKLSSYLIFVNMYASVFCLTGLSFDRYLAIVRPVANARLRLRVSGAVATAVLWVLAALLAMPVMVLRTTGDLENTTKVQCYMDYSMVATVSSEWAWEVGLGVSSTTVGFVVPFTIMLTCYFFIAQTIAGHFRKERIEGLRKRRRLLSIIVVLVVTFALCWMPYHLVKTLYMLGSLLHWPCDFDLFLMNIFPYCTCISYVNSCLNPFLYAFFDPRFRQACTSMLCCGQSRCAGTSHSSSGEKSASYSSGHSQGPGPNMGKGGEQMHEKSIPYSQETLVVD
Test: cell-based or functional assay
Your answer is read as nM, so omit the unit and give the number.

| Binder | Endpoint Label | Recorded Measurement |
| --- | --- | --- |
| ERPRLCHKCPFAF (HELM PEPTIDE1{[Glp].R.P.R.L.[dC].H.K.C.P.[dF].[dA].[dF]}$PEPTIDE1,PEPTIDE1,6:R3-9:R3$$$V2.0; SMILES CC(C)C[C@H](NC(=O)[C@H](CCCNC(=N)N)NC(=O)[C@@H]1CCCN1C(=O)[C@H](CCCNC(=N)N)NC(=O)[C@@H]1CCC(=O)N1)C(=O)N[C@@H]1CSSC[C@@H](C(=O)N2CCC[C@H]2C(=O)N[C@H](Cc2ccccc2)C(=O)N[C@H](C)C(=O)N[C@H](Cc2ccccc2)C(=O)O)NC(=O)[C@H](CCCCN)NC(=O)[C@H](Cc2c[nH]cn2)NC1=O) [Example 6: pE-R-P-R-L-c*-H-K-C*-P-f-a-f-OH] | hAPJ Ca^2+ Flux EC50 | 12.3 |

Okay, now this binder:
The binder ERPRLCHKGPLPC (HELM PEPTIDE1{[Glp].R.P.R.L.C.H.K.G.P.[Nle].P.C}$PEPTIDE1,PEPTIDE1,6:R3-13:R3$$$V2.0; SMILES CCCC[C@@H]1NC(=O)[C@@H]2CCCN2C(=O)CNC(=O)[C@H](CCCCN)NC(=O)[C@H](Cc2c[nH]cn2)NC(=O)[C@@H](NC(=O)[C@H](CC(C)C)NC(=O)[C@H](CCCNC(=N)N)NC(=O)[C@@H]2CCCN2C(=O)[C@H](CCCNC(=N)N)NC(=O)[C@@H]2CCC(=O)N2)CSSC[C@@H](C(=O)O)NC(=O)[C@@H]2CCCN2C1=O) [Example 8: pE-R-P-R-L-C*-H-K-G-P-Nle-P-C*-OH] showed hAPJ Ca^2+ Flux EC50 equal to 43.7

// data source = patent US9908919B2
